Protein target, amino acids: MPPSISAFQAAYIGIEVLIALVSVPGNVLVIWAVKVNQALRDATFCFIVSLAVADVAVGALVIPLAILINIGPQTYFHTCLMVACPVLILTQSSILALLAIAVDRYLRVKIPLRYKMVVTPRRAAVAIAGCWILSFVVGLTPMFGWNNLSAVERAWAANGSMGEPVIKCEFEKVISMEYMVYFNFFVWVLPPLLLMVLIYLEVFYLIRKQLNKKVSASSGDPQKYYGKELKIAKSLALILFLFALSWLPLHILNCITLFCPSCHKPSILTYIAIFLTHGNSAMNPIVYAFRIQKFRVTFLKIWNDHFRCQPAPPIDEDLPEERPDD
Measured Endpoint: pKi
As a rule, pKi stands for the negative log10 of the concentration, concentration in M.

Req: Would you kindly share the measured pKi for Nc1ncc(CO)c2c1ncn2C1OC(CO)C(O)C1O (stereo not shown) [Compound 4] ?
Resp: 7.51
